target-entity: T1, mOrai1-hOrai1 ECL2 (…) protein (human/mouse chimera, UniProt Q8BWG9 1-304 (mouse entry))
T1 construct: also called Ch
T1 sequence (Q8BWG9 other isoform, or with tags, fused parts or gaps): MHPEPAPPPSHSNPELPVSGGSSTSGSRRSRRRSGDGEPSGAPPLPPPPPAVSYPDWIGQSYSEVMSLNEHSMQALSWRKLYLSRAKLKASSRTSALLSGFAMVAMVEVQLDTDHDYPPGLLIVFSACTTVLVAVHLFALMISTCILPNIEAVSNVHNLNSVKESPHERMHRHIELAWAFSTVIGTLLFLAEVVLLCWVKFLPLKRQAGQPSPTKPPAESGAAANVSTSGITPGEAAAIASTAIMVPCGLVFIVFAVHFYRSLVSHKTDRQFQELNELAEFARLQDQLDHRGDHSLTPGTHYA
assay-comment: flow cytometry on HEK-293 cells transfected with the chimera (loss of binding experiment)
measured-parameter: binding result

{"columns": ["binder", "result"],
 "data": [
  ["mAb 2B4.1 (antibody, human IgG2, lambda, V domains shown) VH: QVQLVQSGAEVKKPGASVKVSCKASGYTFTDYYMHWVRQAPGQGLEWMGWINPNSGGTNYVQKFQDRVTMTRDTSITTAYMELTRLRSDDTAVYYCAREEGDYGMDVWGQGTTVTVSS VL: QSVLTQPPSVSGAPGQRVTISCTGSNSNIGTGYDVHWYQKLPGTAPRLLIYSHFNRPSGVPDRFSGSTSGTSASLAITGLQAEDEADYYCQSYDSSLSGSVFGGGTKLTVLG", "no binding"],
  ["mAb 5A4.2 (antibody, human IgG2, lambda, V domains shown, fully human IgG2 lambda, Campaign 2) VH: QVQLVQSGAEVKKPGASVKVSCKASGYTFTDYYMNWVRQAPGQGLEWMGWINPNSGGTKYAQKFQGRVTMTRDTSIRTAYMELSRLRSDDTAVYYCSREYGGNSDWFDPWGQGTLVTVSS VL: QSVLTQPPSVSGAPGQRVTISCTGSSSNIGAGYDVHWYQQLPGTAPKLLIYGNSNRPSGVPDRFSGSKSGTSASLAITGLQAEDEADYYCQSYDNRLSDSVVIGGGTKLTVQG", "no binding"],
  ["mAb 2C1.1 (antibody, human IgG2, lambda, V domains shown, fully human IgG2 lambda, Campaign 1; tested hybridoma-purified and recombinant; also called anti-hOrai1 mAb 2C1.1) VH: QVQLQQWGAGLLKPSETLSLTCAVYGGSFSGYYWSWIRQPPGKGLEWIGEIDHSGSTNYNPALKSRLTISVDTSKNQFSLKLSSVTAADTAVYYCARAGSGGYEDWFDPWGQGTLVTVSS VL: QSVLTQPPSVSGAPGQRVTISCTGSSSNIGAGYNVHWYQQFPRTDPKLLIYVYNIRPSGVPDRFSGSRSGTSASLAITGLQTEDEADYYCQSYDSSLSGVVFGGGTKLTVLG", "no binding"]
]}
